test system: Candida albicans; assay: Antifungal activity against Candida albicans after 3 to 4 days by serial plate dilution method; format: functional; also: test concentration or dose not given here
quantity: diameter of the inhibition zone (DIZ)

In: Value wanted: diameter of the inhibition zone (DIZ) (Candida albicans) of entry COc1ccc2nc(C)cc(-n3cc(CN4CCOCC4)nn3)c2c1
Out: 14 mm

In: diameter of the inhibition zone (DIZ) of COc1ccc2nc(C)cc(-n3cc(CN4CCN(C(C)=O)CC4)nn3)c2c1 on Candida albicans?
Out: 10 mm

In: What measured diameter of the inhibition zone (DIZ) is associated with COc1ccc2nc(C)cc(-n3cc(CNCCCN(C)C)nn3)c2c1 on Candida albicans?
Out: 14 mm

In: What diameter of the inhibition zone (DIZ) appears in the records for this compound with Candida albicans? COc1ccc2nc(C)cc(-n3cc(CN4CCC(c5ccccc5)CC4)nn3)c2c1
Out: <10 mm

In: Report diameter of the inhibition zone (DIZ) for COc1ccc2nc(C)cc(-n3cc(CN4CCN(C)CC4)nn3)c2c1 tested on Candida albicans.
Out: 14 mm

In: What value of diameter of the inhibition zone (DIZ) on Candida albicans does COc1ccc2nc(C)cc(-n3cc(CN4CCN(c5ccc(F)cc5)CC4)nn3)c2c1 have?
Out: 12 mm

In: Lab note: need diameter of the inhibition zone (DIZ) with Candida albicans for entry COc1ccc2nc(C)cc(-n3cc(CN4CCC(N5CCOCC5)CC4)nn3)c2c1 , please look it up.
Out: <10 mm

In: What reported diameter of the inhibition zone (DIZ) corresponds to CCC(C)NCc1cn(-c2cc(C)nc3ccc(OC)cc23)nn1 (stereo not given) on Candida albicans?
Out: 11 mm

In: Checklist item: diameter of the inhibition zone (DIZ) tested on Candida albicans, entry COc1ccc2nc(C)cc(-n3cc(CN(C)CCN(C)C)nn3)c2c1 , value?
Out: 12 mm

In: Form field - read-out: diameter of the inhibition zone (DIZ); system: Candida albicans; submitted item: COc1ccc2nc(C)cc(-n3cc(CN4CCN(c5ccccc5)CC4)nn3)c2c1
Out: 12 mm

###

system: Aspergillus fumigatus; assay: Antifungal activity against Aspergillus fumigatus NCIM 902 after 3 to 4 days by serial plate dilution method; format: functional; conditions: Aspergillus fumigatus, NCIM 902
quantity: MIC (µg/mL)
Form entry: value (µg/mL) — number only.

In: What measured MIC goes with COc1ccc2nc(C)cc(-n3cc(CNC4CCCCC4)nn3)c2c1 ?
Out: 25

In: Find the recorded MIC belonging to COc1ccc2nc(C)cc(-n3cc(CN4CCN(c5ccc(F)cc5)CC4)nn3)c2c1 and report it.
Out: 6.25

In: Please look up its MIC: CCC(C)NCc1cn(-c2cc(C)nc3ccc(OC)cc23)nn1 (configuration not stated)
Out: 25

In: # lookup: MIC of COc1ccc(N2CCN(Cc3cn(-c4cc(C)nc5ccc(OC)cc45)nn3)CC2)c(C)c1
Out: 6.25

In: Requested read-out: MIC. Entry: COc1ccc2nc(C)cc(-n3cc(CN4CCN(C)CC4)nn3)c2c1
Out: 6.25

In: I'd like to know its MIC. The compound in question is COc1ccc2nc(C)cc(-n3cc(CN(C)C)nn3)c2c1
Out: 6.25

In: Can you share its MIC? I mean this compound: COc1ccc2nc(C)cc(-n3cc(CN4CCCCC4)nn3)c2c1
Out: 12.5

In: State the recorded MIC for this entry: COc1ccc2nc(C)cc(-n3cc(CN4CCN(c5ccc(C)cc5)CC4)nn3)c2c1
Out: 12.5

In: Could you share which MIC value was measured for COc1ccc2nc(C)cc(-n3cc(CN4CCC(c5ccccc5)CC4)nn3)c2c1 ?
Out: 50

In: Looking for the measured MIC of COc1ccc2nc(C)cc(-n3cc(CN4CCN(C(C)=O)CC4)nn3)c2c1 , can you help?
Out: 6.25

In: Quick one: MIC for CCN(CC)Cc1cn(-c2cc(C)nc3ccc(OC)cc23)nn1 ?
Out: 12.5

In: Give the measured MIC of COc1ccc2nc(C)cc(-n3cc(CNC4CCCC4)nn3)c2c1 .
Out: 6.25

In: Fill in the blank: the reported MIC of COc1ccc(N2CCN(Cc3cn(-c4cc(C)nc5ccc(OC)cc45)nn3)CC2)cc1 is ____.
Out: 6.25

In: Which MIC value is on record for COc1ccc2nc(C)cc(-n3cc(CN4CCN(C(C)C)CC4)nn3)c2c1 ?
Out: 6.25

In: What does the record list as MIC for COc1ccc2nc(C)cc(-n3cc(CN(C)C4CCCCC4)nn3)c2c1 ?
Out: 50

In: Recorded MIC for COc1ccc2nc(C)cc(-n3cc(CN4CCC(N5CCOCC5)CC4)nn3)c2c1 , please?
Out: 50

In: For the compound shown here, COc1ccc2nc(C)cc(-n3cc(CNC4CC4)nn3)c2c1 , give the reported MIC.
Out: 6.25

In: Which MIC is listed for Cc1cc(C2CCCCC2)n(O)c(=O)c1.NCCO ?
Out: 6.25

In: Reported MIC, compound COc1ccc2nc(C)cc(-n3cc(CN4CCN(c5ccccc5F)CC4)nn3)c2c1 : ____
Out: 6.25

In: Bench note: what MIC did COc1ccc2nc(C)cc(-n3cc(CN4CCN(c5ccccc5)CC4)nn3)c2c1 show?
Out: 6.25

In: Looking for the measured MIC of COc1ccc2nc(C)cc(-n3cc(CN4CCOCC4)nn3)c2c1 , can you help?
Out: 6.25

In: Suppose we examine the compound COc1ccc2nc(C)cc(-n3cc(CNCCCN(C)C)nn3)c2c1 ; what MIC value has been reported?
Out: 6.25

###

test system: Streptococcus pyogenes; test: Antibacterial activity against Streptococcus pyogenes after 3 to 4 days by serial plate dilution method; type: functional; settings: Streptococcus pyogenes
quantity: MIC (µg/mL)
Give the quantity in µg/mL, number only.

In: For the molecule shown here, O=C(O)c1cn(C2CC2)c2cc(N3CCNCC3)c(F)cc2c1=O [CIPROFLOXACIN] , give the reported MIC.
Out: 6.25

In: Which MIC is reported for this molecule? COc1ccc2nc(C)cc(-n3cc(CN4CCN(c5ccc(C)cc5)CC4)nn3)c2c1
Out: 50

In: What MIC value was documented for this molecule, CCC(C)NCc1cn(-c2cc(C)nc3ccc(OC)cc23)nn1 (stereo not given) ?
Out: 12.5

In: Request the reported MIC associated with COc1ccc2nc(C)cc(-n3cc(CN4CCN(c5ccccc5)CC4)nn3)c2c1
Out: 12.5

In: Param item = COc1ccc2nc(C)cc(-n3cc(CN4CCN(C(C)=O)CC4)nn3)c2c1 ; retrieve measured MIC.
Out: 6.25

In: I have this molecule here, COc1ccc2nc(C)cc(-n3cc(CN4CCN(c5ccc(F)cc5)CC4)nn3)c2c1 , and I need its recorded MIC.
Out: 12.5

In: I'd like to know its MIC. The molecule in question is COc1ccc2nc(C)cc(-n3cc(CNC4CCCCC4)nn3)c2c1
Out: 12.5

In: Query: MIC; subject: COc1ccc2nc(C)cc(-n3cc(CN4CCN(C5CCCCC5)CC4)nn3)c2c1
Out: 12.5

In: Field request: MIC | item: COc1ccc2nc(C)cc(-n3cc(CNC4CC4)nn3)c2c1
Out: 6.25

In: What MIC value was documented for this molecule, COc1ccc2nc(C)cc(-n3cc(CN4CCCCC4)nn3)c2c1 ?
Out: 12.5

In: Which value of MIC has been reported for CCN(CC)Cc1cn(-c2cc(C)nc3ccc(OC)cc23)nn1 in the records?
Out: 6.25

In: Looking for the measured MIC of COc1ccc2nc(C)cc(-n3cc(CNCCCN(C)C)nn3)c2c1 , can you help?
Out: 6.25

In: # input molecule: COc1ccc2nc(C)cc(-n3cc(CN4CCN(c5ccccc5F)CC4)nn3)c2c1 ; wanted: its MIC
Out: 6.25

In: Requested field: MIC. Item: COc1ccc(N2CCN(Cc3cn(-c4cc(C)nc5ccc(OC)cc45)nn3)CC2)cc1
Out: 6.25

In: Looking for the measured MIC of COc1ccc2nc(C)cc(-n3cc(CN4CCN(C)CC4)nn3)c2c1 , can you help?
Out: 6.25

###

test system: Candida albicans; experiment: Antifungal activity against Candida albicans after 3 to 4 days by serial plate dilution method; assay type: functional; also: test concentration or dose not given here
Assignment: determine reported diameter of the inhibition zone (DIZ) for the given molecules.
Quick reminder: number only, in mm, skip the unit.

In: Look up diameter of the inhibition zone (DIZ) for this molecule: Cc1cc(C2CCCCC2)n(O)c(=O)c1.NCCO
Out: 20

In: # query: diameter of the inhibition zone (DIZ) of entry COc1ccc2nc(C)cc(-n3cc(CNC4CCCCC4)nn3)c2c1
Out: 11

In: Any idea what its diameter of the inhibition zone (DIZ) is? The molecule is COc1ccc2nc(C)cc(-n3cc(CN4CCN(C(C)C)CC4)nn3)c2c1
Out: 14

In: Dear colleague, I am looking for the recorded diameter of the inhibition zone (DIZ) of the following molecule: COc1ccc2nc(C)cc(-n3cc(CN4CCN(c5ccccc5F)CC4)nn3)c2c1
Out: 10

In: Given COc1ccc(N2CCN(Cc3cn(-c4cc(C)nc5ccc(OC)cc45)nn3)CC2)c(C)c1 , state its recorded diameter of the inhibition zone (DIZ).
Out: 10

In: Given the molecule COc1ccc2nc(C)cc(-n3cc(CN4CCCC4)nn3)c2c1 , what is its reported diameter of the inhibition zone (DIZ)?
Out: 10

In: Using the record for COc1ccc2nc(C)cc(-n3cc(CNC4CCCC4)nn3)c2c1 , report its diameter of the inhibition zone (DIZ).
Out: 10

In: Item COc1ccc(N2CCN(Cc3cn(-c4cc(C)nc5ccc(OC)cc45)nn3)CC2)cc1 has what recorded diameter of the inhibition zone (DIZ)?
Out: 14
